system: Candida albicans ATCC 10231; assay: Antifungal MIC80/MFC assay, fungal pathogen panel; details: ATCC10231
readoutKind: MIC80 (µM)
Your answer is read as µM, so omit the unit and give the number.

Recall and state the measured MIC80 for CCC(C)n1ncn(-c2ccc(N3CCN(c4ccc(OCC5COC(Cn6cncn6)(c6ccc(Cl)cc6Cl)O5)cc4)CC3)cc2)c1=O (stereo not shown) [ITC, itraconazole] .
0.06

---

test system: Hamigera insecticola NRRL35442; assay: Antifungal MIC80/MFC assay, fungal pathogen panel
*1 amine or outer side, *2 acyl side, *3 side chain or, on linkers, in order; H or OH if unused. Where a SMILES comes first, the peptide text is derived from it. [ ]: non-standard residue; d: D form. X2 = CC[C@H](C)C[C@H](C)C[C@H](C)C[C@H](N[*:1])C(=O)[*:2]; X1 = CC[C@@H](C)[C@@H](O[*:1])C(=O)[*:2]; NMeVal(β-OH) = CN[C@H](C(=O)O)C(C)(C)O; aIle = CC[C@@H](C)[C@H](N)C(=O)O; NMeV = CN[C@H](C(=O)O)C(C)C; Sar = CNCC(=O)O
readoutKind: MIC80 (µM)
Unit µM implied. Number only.

Please look at this molecule and report its MIC80: CCC(C)n1ncn(-c2ccc(N3CCN(c4ccc(OCC5COC(Cn6cncn6)(c6ccc(Cl)cc6Cl)O5)cc4)CC3)cc2)c1=O (stereo not shown)
0.3

Query MIC80 for C[C@@H]1[C@H](O)[C@@H](C)/C=C/C=C/C=C/C=C/C=C/C=C/C=C/[C@H](O[C@@H]2O[C@H](C)[C@@H](O)[C@H](N)[C@@H]2O)C[C@@H]2O[C@](O)(C[C@@H](O)C[C@@H](O)[C@H](O)CC[C@@H](O)C[C@@H](O)CC(=O)O[C@H]1C)C[C@H](O)[C@H]2C(=O)O
2.5

Given CC[C@H](C)C[C@H](C)C[C@H](C)C[C@@H]1NC(=O)[C@H](C(C)C)N(C)C(=O)[C@@H]([C@H](C)CC)OC(=O)[C@H](C(C)(C)O)N(C)C(=O)[C@H](CC(C)C)NC(=O)[C@H](C(C)C)N(C)C(=O)[C@H]([C@H](C)CC)NC(=O)[C@@H]2CCCN2C(=O)CN(C)C1=O [Compound 1, persephacin] (cyclo(L[NMeVal(β-OH)][X1][NMeV][X2][Sar]P[aIle][NMeV])) , respond with its MIC80.
0.6

Return the recorded MIC80 value; entry: CC[C@H](C)C[C@H](C)CCCCCCCCC(=O)N[C@H]1C[C@@H](O)[C@@H](NCCN)NC(=O)[C@@H]2[C@@H](O)CCN2C(=O)[C@H]([C@H](O)CCN)NC(=O)[C@H]([C@H](O)[C@@H](O)c2ccc(O)cc2)NC(=O)[C@@H]2C[C@@H](O)CN2C(=O)[C@H]([C@@H](C)O)NC1=O
0.06

Data credit: patent US11643438B2
